experimentalSystem: pY705-STAT3 in PBMC (Homo sapiens)
Construct: Cryopreserved Peripheral Blood Mononuclear Cells (PBMC) are from AllCells; host or cells: cryopreserved PBMC
assayProtocol: MSD-pSTAT-PBMC Assay (pSTAT3, IL-6 stimulated)
Format: cell-based
testSettings: PBMC, compound 3 hrs, then 10 ng/mL IL-6 for 10 min; Table 1114; read-out: pSTAT3
resultType: IC50

compound CC(C)(C)C(=O)SCCOP(=O)(Oc1ccccc1)C(F)(F)c1ccc2sc(C(=O)N[C@H]3CCCC[C@H]4CC[C@@H](C(=O)N5C[C@H](c6ccccc6)[C@@H](C#N)C5)N4C3=O)cc2c1 (single isomer, unassigned) , IC50 observed: > 3 µM

compound CC(C)CC(=O)SCCOP(=O)(OCCSC(=O)CC(C)C)C(F)(F)c1ccc2sc(C(=O)N[C@H]3CCCC(C)[C@H]4CC[C@@H](C(=O)N5C[C@H](c6cc[nH]c(=O)c6)[C@@H](C#N)C5)N4C3=O)cc2c1 (single isomer, unassigned) , IC50 observed: 0.1 to 1 µM

compound CC(C)(O)CC(=O)SCCOP(=O)(OCCSC(=O)CC(C)(C)O)C(F)(F)c1ccc2sc(C(=O)N[C@H]3CCCC[C@H]4CC[C@@H](C(=O)N5C[C@@H](C#N)[C@H](c6ccccc6)C5)N4C3=O)cc2c1 (single isomer, unassigned) , IC50 observed: > 3 µM

compound `CC(C)(C)C(=O)OCOP(=O)(OCOC(=O)C(C)(C)C)C(F)(F)c1ccc2sc(C(=O)N[C@H]3CCC[C@H]4CC[C@@H](C(=O)N5CC(C(=O)N6CCOCC6)C5)N4C3=O)cc2c1` , IC50 observed: < 0.1 µM

----------
experimentalSystem: Recombinant STAT3 protein (STAT3 (G127-I722)) (Homo sapiens, UniProt P40763)
Construct: Recombinant STAT3 protein (STAT3 (G127-I722))
Sequence (P40763 127-722): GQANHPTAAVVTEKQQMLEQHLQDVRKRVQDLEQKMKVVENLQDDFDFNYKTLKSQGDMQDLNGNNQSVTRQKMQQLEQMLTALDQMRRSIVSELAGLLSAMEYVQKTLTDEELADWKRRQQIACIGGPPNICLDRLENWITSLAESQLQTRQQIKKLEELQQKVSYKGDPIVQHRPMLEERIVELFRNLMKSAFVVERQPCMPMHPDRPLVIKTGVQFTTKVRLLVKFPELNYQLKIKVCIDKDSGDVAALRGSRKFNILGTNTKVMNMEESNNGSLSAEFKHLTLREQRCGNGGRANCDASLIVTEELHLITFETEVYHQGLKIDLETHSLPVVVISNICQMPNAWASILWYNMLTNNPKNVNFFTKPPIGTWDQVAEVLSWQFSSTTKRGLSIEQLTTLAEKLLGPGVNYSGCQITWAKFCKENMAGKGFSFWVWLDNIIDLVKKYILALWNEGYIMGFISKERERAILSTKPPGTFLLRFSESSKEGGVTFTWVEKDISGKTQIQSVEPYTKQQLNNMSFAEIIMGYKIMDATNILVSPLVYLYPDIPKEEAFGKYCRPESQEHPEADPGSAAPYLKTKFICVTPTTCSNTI
assayProtocol: STAT3 Fluorescence Polarization (FP) Assay
Type: binding
testSettings: STAT3 25 nM, probe 5-FAM-GpYLPQTV-NH2 2 nM, 45-minute incubation; read-out: STAT3 (FP assay IC50)
pIC50: −log10 of the molar value.
resultType: pIC50

Study these solved cases before continuing.
>>> valueobserved("N#C[C@@H]1CN(C(=O)[C@@H]2CC[C@@H]3CCCC[C@H](NC(=O)c4cc5cc(C(F)(F)P(=O)(O)O)ccc5s4)C(=O)N32)C[C@H]1c1cc[nH]c(=O)c1 (relative stereo)")
"6.00 to 7.00"
>>> valueobserved("O=C(CCC(F)(F)F)NC1(c2ccccn2)CN(C(=O)[C@@H]2CC[C@@H]3CCCC[C@H](NC(=O)c4cc5cc(C(F)(F)P(=O)(O)O)ccc5s4)C(=O)N32)C1")
"> 7.00"

For the next question, use this compound.
compound `O=C(N[C@H]1CCCC[C@H]2CC[C@@H](C(=O)N3CC4(CNS(=O)(=O)C4)C3)N2C1=O)c1cc2cc(C(F)(F)P(=O)(O)O)ccc2s1` , pIC50 observed: 6.00 to 7.00

----------
experimentalSystem: pY705-STAT3 in PBMC (Homo sapiens, UniProt P40763)
Construct: Cryopreserved Peripheral Blood Mononuclear Cells (PBMC) are from AllCells; host or cells: cryopreserved PBMC
Sequence (P40763 whole entry): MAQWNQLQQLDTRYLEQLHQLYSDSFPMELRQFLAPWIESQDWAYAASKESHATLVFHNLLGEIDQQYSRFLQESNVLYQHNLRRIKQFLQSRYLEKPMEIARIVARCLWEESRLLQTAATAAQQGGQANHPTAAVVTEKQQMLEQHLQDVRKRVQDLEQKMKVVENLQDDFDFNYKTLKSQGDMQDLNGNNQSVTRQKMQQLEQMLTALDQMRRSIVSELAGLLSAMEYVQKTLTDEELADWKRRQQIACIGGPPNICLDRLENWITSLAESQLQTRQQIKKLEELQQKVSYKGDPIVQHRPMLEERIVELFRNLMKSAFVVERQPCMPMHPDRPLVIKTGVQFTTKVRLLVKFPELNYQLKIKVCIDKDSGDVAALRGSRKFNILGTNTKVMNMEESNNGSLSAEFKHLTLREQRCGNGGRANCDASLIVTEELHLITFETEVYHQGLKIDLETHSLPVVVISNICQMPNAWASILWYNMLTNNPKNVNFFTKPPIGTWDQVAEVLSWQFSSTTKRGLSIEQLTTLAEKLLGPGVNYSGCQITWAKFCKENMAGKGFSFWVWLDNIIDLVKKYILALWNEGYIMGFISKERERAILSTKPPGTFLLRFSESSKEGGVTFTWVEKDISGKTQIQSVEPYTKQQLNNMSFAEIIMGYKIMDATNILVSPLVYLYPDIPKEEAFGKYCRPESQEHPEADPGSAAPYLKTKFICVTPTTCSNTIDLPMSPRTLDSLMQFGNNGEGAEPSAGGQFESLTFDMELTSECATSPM
assayProtocol: MSD-pSTAT-PBMC Assay (pSTAT3, IL-6 stimulated)
Type: cell-based
testSettings: STAT3, PBMC, compound 3 hrs, then 10 ng/mL IL-6 for 10 min; Table 115
# IC50 per entry

Study these solved cases before continuing.
>>> valueobserved("CCCOC(=O)[C@H](C)NP(=O)(Cc1ccc2sc(C(=O)N[C@H]3CCC[C@H]4CC[C@@H](C(=O)N5CC(c6cnc(C(F)F)cc6OC)C5)N4C3=O)cc2c1)Oc1ccccc1 (stereo partly drawn) [Compound 991]")
"> 3000 nM"
>>> valueobserved("CCCCOC(=O)[C@H](C)NP(=O)(Cc1ccc2sc(C(=O)N[C@H]3CCC[C@H]4CC[C@@H](C(=O)N5CC(c6cccnc6)C5)N4C3=O)cc2c1)Oc1cccc2ccccc12 (stereo partly drawn) [Compound 1004]")
"100 to 1000 nM"

For the next question, use this compound.
compound CCCOC(=O)C(C)(C)NP(=O)(Cc1ccc2sc(C(=O)N[C@H]3CCC[C@H]4CC[C@@H](C(=O)N5CC(c6cccnc6)C5)N4C3=O)cc2c1)Oc1ccccc1 (stereo partly drawn) [Compound 445] , IC50 observed: < 100 nM

----------
# IC50 per entry
experimentalSystem: pY705-STAT3 in PBMC (Homo sapiens, UniProt P40763)
Construct: Cryopreserved Peripheral Blood Mononuclear Cells (PBMC) are from AllCells; host or cells: cryopreserved PBMC
assayProtocol: MSD-pSTAT-PBMC Assay (pSTAT3, IL-6 stimulated)
Format: cell-based
testSettings: PBMC, compound 3 hrs, then 10 ng/mL IL-6 for 10 min; Table 115; read-out: STAT3

Study these solved cases before continuing.
>>> valueobserved("COc1ccncc1C1CN(C(=O)[C@@H]2CC[C@@H]3CCC[C@H](NC(=O)c4cc5cc([C@@H](F)[P@@](=O)(N[C@@H](C)C(=O)OC(C)C)Oc6ccccc6)ccc5s4)C(=O)N32)C1 (single isomer, unassigned) [Compound 955]")
"< 100 nM"
>>> valueobserved("Cc1ccncc1C1CN(C(=O)[C@@H]2CC[C@@H]3CCC[C@H](NC(=O)c4cc5cc(CP(=O)(N[C@@H](C)C(=O)OC(C)C)Oc6ccccc6)ccc5s4)C(=O)N32)C1 (stereo partly shown) [Compound 298]")
"100 to 1000 nM"
>>> valueobserved("CCCOC(=O)[C@H](C)NP(=O)(Oc1ccccc1)[C@@H](F)c1ccc2sc(C(=O)N[C@H]3CCC[C@H]4CC[C@@H](C(=O)N5CC(c6cnccc6N6CCC6)C5)N4C3=O)cc2c1 (stereo partly shown) [Compound 1028]")
"100 to 1000 nM"
>>> valueobserved("CC(C)CC(=O)SCCOP(=O)(Cc1ccc2sc(C(=O)N[C@H]3CCC[C@H]4CC[C@@H](C(=O)N5CC(c6cccnc6)C5)N4C3=O)cc2c1)OCCSC(=O)CC(C)C [Compound 1084]")
"100 to 1000 nM"
>>> valueobserved("CC(C)OC(=O)[C@H](C)NP(=O)(Cc1ccc2sc(C(=O)N[C@H]3CCC[C@H]4CC[C@@H](C(=O)N5CC(c6cccnc6)C5)N4C3=O)cc2c1)N[C@@H](C)C(=O)OC(C)C [Compound 399]")
"1000 to 3000 nM"
>>> valueobserved("CCCOC(=O)[C@H](C)NP(=O)(Oc1ccccc1)C(F)c1ccc2sc(C(=O)N[C@H]3CCCC[C@H]4CC[C@@H](C(=O)N5CCC(c6cccnc6)C5)N4C3=O)cc2c1 (stereo partly shown) [Compound 320]")
"< 100 nM"
>>> valueobserved("CCCOC(=O)[C@H](C)NP(=O)(Oc1ccccc1)C(F)c1ccc2sc(C(=O)N[C@H]3CCC[C@H]4CC[C@@H](C(=O)N5CC(c6cncnc6OC)C5)N4C3=O)cc2c1 (stereo partly shown) [Compound 1042]")
"100 to 1000 nM"
>>> valueobserved("CCC(CC)COC(=O)[C@H](C)NP(=O)(Cc1ccc2sc(C(=O)N[C@H]3CCC[C@H]4CC[C@@H](C(=O)N5CC(c6cccnc6)C5)N4C3=O)cc2c1)Oc1ccccc1 (stereo partly shown) [Compound 258]")
"< 100 nM"

molecule CCCOC(=O)[C@H](Cc1ccccn1)NP(=O)(Cc1ccc2sc(C(=O)N[C@H]3CCC[C@H]4CC[C@@H](C(=O)N5CC(c6cccnc6)C5)N4C3=O)cc2c1)Oc1ccccc1 (stereo partly shown) [Compound 432] , IC50 observed: 100 to 1000 nM

molecule CCCCOC(=O)[C@H](C)NP(=O)(Cc1ccc2ccc(C(=O)N[C@H]3CCCC[C@H]4CC[C@@H](C(=O)N5CC(c6ccccc6)CC56CC6)N4C3=O)cc2c1)Oc1ccccc1 (stereo partly shown) [Compound 405] , IC50 observed: > 3000 nM

----------
# pIC50 per entry
experimentalSystem: pY641-STAT6 in PBMC (Homo sapiens, UniProt P42226)
Construct: Cryopreserved Peripheral Blood Mononuclear Cells (PBMC) are from AllCells; host or cells: cryopreserved PBMC
Sequence (P42226 whole entry): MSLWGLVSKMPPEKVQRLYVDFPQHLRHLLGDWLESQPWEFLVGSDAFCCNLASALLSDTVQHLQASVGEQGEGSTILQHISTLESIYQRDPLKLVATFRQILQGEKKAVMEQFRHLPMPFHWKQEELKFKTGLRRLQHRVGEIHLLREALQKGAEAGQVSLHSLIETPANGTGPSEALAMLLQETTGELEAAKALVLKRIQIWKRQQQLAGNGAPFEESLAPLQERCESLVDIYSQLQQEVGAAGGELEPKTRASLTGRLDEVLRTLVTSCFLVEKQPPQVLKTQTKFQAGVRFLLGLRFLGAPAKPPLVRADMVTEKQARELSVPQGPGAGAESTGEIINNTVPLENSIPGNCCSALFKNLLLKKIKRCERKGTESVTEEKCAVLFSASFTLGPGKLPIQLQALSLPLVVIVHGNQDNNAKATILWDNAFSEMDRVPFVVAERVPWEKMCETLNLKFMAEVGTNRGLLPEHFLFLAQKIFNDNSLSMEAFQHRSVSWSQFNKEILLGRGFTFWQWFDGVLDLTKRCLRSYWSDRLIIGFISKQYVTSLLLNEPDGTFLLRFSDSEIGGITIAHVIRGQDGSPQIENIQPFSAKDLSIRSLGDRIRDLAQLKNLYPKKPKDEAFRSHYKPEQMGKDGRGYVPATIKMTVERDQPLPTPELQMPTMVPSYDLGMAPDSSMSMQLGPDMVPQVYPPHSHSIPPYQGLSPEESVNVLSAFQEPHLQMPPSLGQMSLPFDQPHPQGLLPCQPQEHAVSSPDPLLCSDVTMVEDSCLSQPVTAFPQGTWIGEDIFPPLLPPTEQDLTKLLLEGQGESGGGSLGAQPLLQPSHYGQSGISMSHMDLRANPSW
assayProtocol: MSD-pSTAT-PBMC Assay (pSTAT6, IL-4 stimulated)
Format: cell-based
testSettings: STAT6, PBMC, compound 3 hrs, then 1 ng/mL IL-4 for 10 min; Table 115
pIC50: −log10 of the molar value.

Study these solved cases before continuing.
>>> valueobserved("CCCOC(=O)[C@H](C)N[P@](=O)(Oc1ccccc1)[C@@H](F)c1ccc2sc(C(=O)N[C@H]3CCC[C@H]4CC[C@@H](C(=O)N5CC(c6cnccc6N(C)C)C5)N4C3=O)cc2c1 (single isomer, unassigned) [Compound 941]")
"5.52 to 6.00"
>>> valueobserved("CCCOC(=O)[C@H](C)NP(=O)(Oc1ccccc1)C(F)c1ccc2ccc(C(=O)N[C@H]3CCCC[C@H]4CC[C@@H](C(=O)N5CCC(c6ccn(C7CC7)c(=O)c6)C5)N4C3=O)cc2c1 (stereo partly drawn) [Compound 455]")
"< 5.52"

compound CCCOC(=O)[C@H](C)NP(=O)(Oc1ccccc1)[C@@H](F)c1ccc2sc(C(=O)N[C@H]3CCC[C@H]4CC[C@@H](C(=O)N5C[C@@H](c6ccccc6)[C@H](C#N)C56CC6)N4C3=O)cc2c1 (stereo partly drawn) [Compound 382] , pIC50 observed: > 7.00

compound CCCOC(=O)[C@H](C)NP(=O)(Oc1ccccc1)C(F)c1ccc2sc(C(=O)N[C@H]3CCCC[C@H]4CC[C@@H](C(=O)N5CCC(c6cccnc6)C5)N4C3=O)cc2c1 (stereo partly drawn) [Compound 320] , pIC50 observed: 6.00 to 7.00

compound COCCOC(=O)[C@H](C)NP(=O)(Oc1ccccc1)[C@@H](F)c1ccc2sc(C(=O)N[C@H]3CCCC[C@H]4CC[C@@H](C(=O)N5C[C@H](c6ccccc6)[C@@H](C#N)C56CC6)N4C3=O)cc2c1 (stereo partly drawn) [Compound 375] , pIC50 observed: > 7.00

compound CCCOC(=O)[C@H](C)NP(=O)(Oc1ccccc1)C(F)c1ccc2ccc(C(=O)N[C@H]3CCCC[C@H]4CC[C@@H](C(=O)N5CC(c6cccnc6)CC56CC6)N4C3=O)cc2c1 (stereo partly drawn) [Compound 429] , pIC50 observed: > 7.00

compound CCCOC(=O)[C@H](C)NP(=O)(Cc1ccc2sc(C(=O)N[C@H]3CCCC[C@H]4CC[C@@H](C(=O)NCc5cnc6[nH]cnc6c5)N4C3=O)cc2c1)Oc1ccccc1 (stereo partly drawn) [Compound 280] , pIC50 observed: < 5.52

compound CC(C)OC(=O)[C@H](C)NP(=O)(Cc1ccc2ccc(C(=O)N[C@H]3CCCC[C@H]4CC[C@@H](C(=O)N5C[C@@H](c6cc[nH]c(=O)c6)CC56CC6)N4C3=O)cc2c1)Oc1ccccc1 (stereo partly drawn) [Compound 424] , pIC50 observed: 6.00 to 7.00

compound CCCOC(=O)[C@H](C)NP(=O)(Oc1ccccc1)C(F)c1ccc2sc(C(=O)N[C@H]3CCCC[C@H]4CC[C@@H](C(=O)N5C(=O)N(c6cccnc6)C(=O)C5(C)C)N4C3=O)cc2c1 (stereo partly drawn) [Compound 989] , pIC50 observed: < 5.52
